// provenance: ChEMBL document CHEMBL5365469

test: Cytotoxicity against human L02 cells assessed as inhibition of cell growth by MTT assay; format: toxicity, cell-based
Measurement label: pIC50
Friendly reminder that pIC50 comes from taking -log10 of the concentration in mol/L.

Exam item: Answer with reported pIC50 of "COc1cc2nc(-c3cc(OC)c(OC)cc3OC)[nH]c2cc1C#Cc1ccccc1F"
Marked response: 4.38

----------
system: SiHa; experiment: Antiproliferative activity against human SiHa cells assessed as inhibition of cell growth by MTT assay; type: functional, cell-based
Listing of entries alongside the reported pIC50.
Friendly reminder that pIC50 comes from taking -log10 of the concentration in mol/L.

Compound structure string	pIC50
COc1cc2nc(-c3cc(OC)c(OC)cc3OC)[nH]c2cc1/C=C/C(=O)N1CCOCC1	5.18
COc1cc2nc(-c3cc(OC)c(OC)cc3OC)[nH]c2cc1/C=C/C(=O)NC(C)(C)C	5.46
CCOC(=O)/C=C/c1cc2[nH]c(-c3ccc(OC)c(OC)c3OC)nc2cc1OC	4.09
COc1cc2nc(-c3ccc(OC)c(OC)c3OC)[nH]c2cc1/C=C/C(=O)NC(C)C	4.14
COc1ccc(C#Cc2cc3[nH]c(-c4cc(OC)c(OC)cc4OC)nc3cc2OC)cc1	4.48
COc1cc2nc(-c3cc(OC)c(OC)cc3OC)[nH]c2cc1C#Cc1ccccc1F	5.03
COc1cc2nc(-c3ccc(OC)c(OC)c3OC)[nH]c2cc1/C=C/C(=O)N1CCOCC1	4.12
CCOC(=O)/C=C/c1cc2[nH]c(-c3cc(OC)c(OC)cc3OC)nc2cc1OC	5.01

Exam item: Answer with reported pIC50 of "COc1cc2nc(-c3ccc(OC)c(OC)c3OC)[nH]c2cc1/C=C/C(=O)NC(C)(C)C"
Marked response: 4.42

Exam item: Answer with reported pIC50 of "Nc1cc(C(F)(F)F)c(-c2cc(N3CCOCC3)nc(N3CCOCC3)n2)cn1"
Marked response: 5.14

Exam item: Answer with reported pIC50 of "COc1cc2nc(-c3ccc(OC)c(OC)c3OC)[nH]c2cc1/C=C/C(=O)NCCO"
Marked response: 4.65

Exam item: Answer with reported pIC50 of "COc1cc2nc(-c3cc(OC)c(OC)cc3OC)[nH]c2cc1C#Cc1ccccc1Cl"
Marked response: 4.04
